# ASSAYED SYSTEM: T1, human ASGR-1 (wild type) (human, UniProt P07306 1-291)
# T1 construct: also called wt ASGR1; huASGR-1
# T1 sequence: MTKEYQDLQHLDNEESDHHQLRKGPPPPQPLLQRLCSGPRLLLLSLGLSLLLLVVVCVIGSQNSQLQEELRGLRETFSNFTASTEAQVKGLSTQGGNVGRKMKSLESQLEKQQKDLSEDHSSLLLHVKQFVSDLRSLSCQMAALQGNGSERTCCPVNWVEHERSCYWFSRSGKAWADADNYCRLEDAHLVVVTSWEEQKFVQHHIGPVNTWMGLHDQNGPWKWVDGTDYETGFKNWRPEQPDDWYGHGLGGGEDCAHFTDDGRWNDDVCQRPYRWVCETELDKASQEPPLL
# METHOD DESCRIPTION: FACS ratio: 65C12 geomean / this mAb geomean
# Method: Mutant hASGR-1 variants were constructed such that non-arginine residues were changed to arginine and where wild type arginine residues were mutated to glutamic acid. Each mutant hASGR-1 sequence was then cloned into a mammalian expression vector and used to transiently transfect CHOs cells. The ability of human ASGR-1-specific, ligand competing antibodies to bind to the mutant hASGR-1 proteins was assessed by FACS as described above. […]
Collected Expression Normalization to mAb 65C12 values appear next to each entry.
// return a plain number; no unit text

190F8 (antibody, V domains shown, mAb) VH: QVQLVESGGGVVQPGRSLRLSCAASGFTFSTYGMHWVRQAPGKGLEWVAVIWYDGSNKNYADSVKGRFTISRDNSKNTLYLQMNSLRAEDTAVYYCARDQGVGYDGLDVWGQGTTVTVSS VL: DIQMTQSPSSLSASVGDRVTITCRTSQGIGNYLAWFQQKPGKAPKSLLYKASSLQSGVPSKFSGSGSGTDFTLTISSLQPEDFATYYCQQYMTYPLTFGGGTKVEIK : 1.54

Ask | Give Expression Normalization to mAb 65C12 for 50G9 (antibody, V domains shown, mAb) VH: QVQLVESGGGVVQPGRSLRLSCAASGFIFSSYGMHWVRQAPGKGLEWVAVISQDGIIRYYADSVKGRFTISRDNSKNTLYLQMNSLRAEDTAVYYCARDVKQWLVRTYGMDVWGQGTTVTVSS VL: SYELTQPPSVSVSPGQTASITCSGDKLGDKYACWYQQKPGQSPVLVIYQDSKRPSGIPERFSGSNSGNTATLTISGTQARDEAEYYCQARNSRRGVFGGGTRLTVL
Reply | 1.5
